molecular target: T1, human TGFβ1 (human, UniProt P01137 279-390); assay: Biacore off-rate vs wt GC1008, 50 nM
T1 construct: also called TGFβ1 homodimer
T1 sequence (P01137 279-390 limits assumed): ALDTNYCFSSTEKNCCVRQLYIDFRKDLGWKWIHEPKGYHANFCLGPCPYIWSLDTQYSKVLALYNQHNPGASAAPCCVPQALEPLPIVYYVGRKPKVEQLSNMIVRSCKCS
endpoint_name: kd var/kd wt
Numbers only.

Examples from the recorded data:
E74W (antibody, V domains shown, GC1008 IgG4 variant) VH: QVQLVQSGAEVKKPGSSVKVSCKASGYTFSSNVISWVRQAPGQGLEWMGGVIPIVDIANYAQRFKGRVTITADWSTSTTYMELSSLRSEDTAVYYCASTLGLVLDAMDYWGQGTLVTVSS VL: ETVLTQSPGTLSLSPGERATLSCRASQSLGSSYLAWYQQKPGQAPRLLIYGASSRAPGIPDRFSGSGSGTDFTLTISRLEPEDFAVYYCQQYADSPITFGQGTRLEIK = 0.8
I54F (antibody, V domains shown, GC1008 IgG4 variant) VH: QVQLVQSGAEVKKPGSSVKVSCKASGYTFSSNVISWVRQAPGQGLEWMGGVIPFVDIANYAQRFKGRVTITADESTSTTYMELSSLRSEDTAVYYCASTLGLVLDAMDYWGQGTLVTVSS VL: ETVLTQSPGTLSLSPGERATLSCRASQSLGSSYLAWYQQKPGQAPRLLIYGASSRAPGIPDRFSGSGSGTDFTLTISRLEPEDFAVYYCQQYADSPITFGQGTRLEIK = 1.3

Now turn to the next binder.
**Query** I have this binder here, Y27P (antibody, V domains shown, GC1008 IgG4 variant) VH: QVQLVQSGAEVKKPGSSVKVSCKASGPTFSSNVISWVRQAPGQGLEWMGGVIPIVDIANYAQRFKGRVTITADESTSTTYMELSSLRSEDTAVYYCASTLGLVLDAMDYWGQGTLVTVSS VL: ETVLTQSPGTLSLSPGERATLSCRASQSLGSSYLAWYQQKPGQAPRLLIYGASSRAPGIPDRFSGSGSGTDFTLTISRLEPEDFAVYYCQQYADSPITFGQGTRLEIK , and I need its recorded kd var/kd wt.
**Result** 1.7
